Data origin, for the record: ChEMBL document CHEMBL5532675

Assay: Oral bioavailability in Sprague-Dawley rat at 10 mg/kg measured after 48 hrs by LC-MS/MS analysis
Type: ADME, organism-based
Details: in vivo
measuredMetric: bioavailability
In your response, put the unit directly after the numeric value.

Sample `CCNc1cc(C(=O)C2CCCC2)ccc1OC` — what was its bioavailability?
43%

---

Assay: Drug concentration in Sprague-Dawley rat brain at 10 mg/kg, po administered as single dose for 1 hrs by LC-MS analysis
Type: ADME, organism-based
Settings: read-out: Ct
measuredMetric: concentration at 1 h (ng/g)
Give the value in ng/g but do not write ng/g after it.

Which concentration at 1 h reading was recorded for the compound `CCOc1nc(Cl)cc2c1cnn2CCCC(=O)O` ?
322

---

Biological target: UniProtKB Q08499
Sequence (Q08499 whole entry): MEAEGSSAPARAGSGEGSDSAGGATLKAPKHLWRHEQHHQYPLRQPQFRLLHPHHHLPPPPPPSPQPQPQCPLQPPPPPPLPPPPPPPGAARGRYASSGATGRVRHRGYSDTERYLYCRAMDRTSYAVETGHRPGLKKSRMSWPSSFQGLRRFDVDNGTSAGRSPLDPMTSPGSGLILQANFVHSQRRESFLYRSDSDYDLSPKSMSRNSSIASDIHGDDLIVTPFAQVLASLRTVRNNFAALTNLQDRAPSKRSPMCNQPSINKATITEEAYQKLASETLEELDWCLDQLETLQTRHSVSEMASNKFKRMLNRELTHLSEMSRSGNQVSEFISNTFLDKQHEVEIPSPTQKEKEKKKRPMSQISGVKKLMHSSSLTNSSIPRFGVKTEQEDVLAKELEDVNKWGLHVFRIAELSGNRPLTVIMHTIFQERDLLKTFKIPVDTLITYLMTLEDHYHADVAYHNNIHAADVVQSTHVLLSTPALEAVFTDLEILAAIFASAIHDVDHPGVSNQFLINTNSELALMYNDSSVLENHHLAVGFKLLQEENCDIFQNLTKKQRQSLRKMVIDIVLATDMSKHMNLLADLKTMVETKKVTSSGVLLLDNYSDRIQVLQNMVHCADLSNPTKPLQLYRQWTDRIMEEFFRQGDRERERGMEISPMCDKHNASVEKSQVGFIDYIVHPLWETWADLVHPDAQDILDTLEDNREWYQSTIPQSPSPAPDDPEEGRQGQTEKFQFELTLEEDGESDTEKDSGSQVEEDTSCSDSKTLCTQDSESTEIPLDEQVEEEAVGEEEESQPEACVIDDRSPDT
Experiment: Inhibition of PDE4D7 (unknown origin) using FAM-cyclic-3',5'-AMP as substrate at 100 nM incubated for 1 hrs by fluorescence polarization based IMAP assay relative to control
measuredMetric: inhibition (%)
Numbers only; they are read as %.

Can you share its inhibition? I mean this compound: `CCOc1nc(C)cc2c1cnn2C1CCOCC1`
5

Please report the recorded inhibition for `CCOc1nc(Cl)cc2c1cnn2Cc1cccnc1` .
5

Given the entry `CCOc1nc(Cl)cc2c1cnn2C1CCSCC1` , report its measured inhibition.
5

Form field: reported inhibition of `CCOc1nc(Cl)cc2c1cnn2CCO`
4

Give the measured inhibition of `CCOc1nc(Cl)cc2nn(CC(=O)NO)cc12` .
69

# lookup: inhibition of `CCOc1nc(Cl)cc2c1c(/C=C/c1ccc(OC)cc1)nn2CCCC(=O)O`
5

Fill blank: measured inhibition of the compound `CC(C)Oc1nc(Cl)cc2c1cnn2C1CCOCC1` is ____.
12

inhibition lookup needed for `CCOc1nc(Cl)cc2c1c(C(F)(F)F)nn2CCCC(=O)O` , thanks.
53

For `CCOc1nc(Cl)cc2c1c(C)nn2CCCC(=O)O` , what is its reported inhibition?
11

// query inhibition value for entry `CCOc1nc(Cl)cc2c1c(CC)nn2CCCC(=O)O`
48

// returns reported inhibition for input `CCOc1nc(Cl)cc2c1cnn2CC(N)=O`
3

I have this compound here, `Clc1cc2c(cnn2C2CCOCC2)c(OC2CC2)n1` , and I need its recorded inhibition.
4

# inhibition lookup, item `CCOc1nc(C#N)cc2c1cnn2C1CCOCC1`
32

inhibition lookup needed for `CCOc1nccc2c1cnn2C1CCOCC1` , thanks.
1

Item `CCOc1nc(Cl)cc2c1c(Nc1ccccc1)nn2CCCC(=O)O` has what recorded inhibition?
9

Could you share which inhibition value was measured for `CCOc1nc(-c2cccs2)cc2c1cnn2C1CCOCC1` ?
4

Form field: reported inhibition of `CCOc1nc(Cl)cc2c1cnn2CC(=O)NOC`
6

Consider the compound shown here: `CCOc1nc(C(N)=O)cc2c1cnn2C1CCOCC1` What is its recorded inhibition?
6

Item under review: `CCOc1nc(-c2ccccc2)cc2c1cnn2C1CCOCC1` . Reported inhibition?
14

Find the recorded inhibition belonging to `CCOc1nc(Cl)cc2c1cnn2CC#N` and report it.
5

Requested field: inhibition. Item: `CCOc1nc(Cl)cc2c1cnn2CC(=O)O`
3

What does the data say about its inhibition? Entry: `CCOc1nc(C(C)=O)cc2c1cnn2C1CCOCC1`
6

// lookup inhibition for `CCOc1nc(Cl)cc2c1c(-c1ccncc1)nn2CCCC(=O)O`
24

What value of measured inhibition is listed for COc1ccc(C2CNC(=O)C2)cc1OC1CCCC1 (configuration not stated) ?
34

# query: inhibition of entry `CCOc1nc(Cl)cc2c1cnn2CCCC(=O)NO`
19

GET /values?readout=inhibition&item= `CCOc1nc(Cl)cc2c1cnn2C1CCOCC1`
64

I have this compound here, `CCOc1nc(Cl)cc2c1cnn2CC1(C)COC1` , and I need its recorded inhibition.
7

So what does the record say about inhibition for `CCOc1nc(-c2ccsc2)cc2c1cnn2C1CCOCC1` ?
3

Look at this compound and give its reported inhibition. `CCOc1nc(Cl)cc2c1cnn2CC(=O)NO`
68

GET /values?readout=inhibition&item= `CCOc1nc(Cl)cc2c1c(-c1ccc(OC)cc1)nn2CCCC(=O)O`
16

// query inhibition value for entry `CCOc1nc(Cl)cc2nn(CCCC(=O)O)cc12`
8

For the compound shown here, `CCOc1nc(Cl)cc2nn(CCO)cc12` , give the reported inhibition.
5

Give its inhibition value. Item: CCOc1nc(Cl)cc2c1cnn2C(C)c1ccc(C(F)(F)F)cc1 (configuration not stated)
14

Give the measured inhibition of `CCOc1nc(Cl)cc2nn(-c3cccc(OC)c3)cc12` .
8

Which inhibition value is on record for `CCOc1nc(Cl)cc2nn(CCC(=O)O)cc12` ?
69

Bench note: what inhibition did `COc1nc(Cl)cc2c1cnn2C1CCOCC1` show?
35

I am curious: what inhibition value has been reported for `CNc1nc(Cl)cc2c1cnn2C1CCOCC1` ?
0

What measured inhibition goes with `CCOc1nc(Cl)cc2c1c(-c1cccnc1)nn2CCCC(=O)O` ?
9

# input compound: `CCOc1nc(Cl)cc2c1cnn2-c1cccc(OC)c1` ; wanted: its inhibition
7

Name the recorded inhibition for `CCOc1nc(Cl)cc2c1c(C1CC1)nn2CCCC(=O)O` .
13

Requested field: inhibition. Item: CCOc1nc(Cl)cc2c1cnn2CC1CCCO1 (configuration not stated)
4

May I ask what inhibition has been recorded for `CCOc1nc(Cl)cc2c1cnn2CCC(=O)NO` ?
18
